target: Beta-2 adrenergic receptor (Homo sapiens); assay: Adrenergic beta2 receptor (ADRB2) small molecule antagonists, cell-based qHTS assay (AID 1963592); details: CHO-ADRB2 cells, isoproterenol-stimulated cAMP HTRF ratio, 0.5 h; series mostly up to 92.4 µM; further: nearly all actives have a fitted effect of over 50% in size
Records with an inconclusive call do not appear. Calls of active or inactive are those of the source. The call rests on the fitted dose curve.
Return exactly one item of active, inactive

| molecule | assignedClass |
| --- | --- |
| Cc1cc(C2CCCCC2)n(O)c(=O)c1 | inactive |

Query: Kindly provide the recorded test outcome for the following molecule: `CCOC(=O)CC(=O)C(=O)OCC`
Response: inactive

Query: Can you look up the reported call for `Cc1ccc2c(Br)cc(Br)c(O)c2n1` for me?
Response: inactive

Query: Any idea what this test logged for `OCCN1CCN(CCCN2c3ccccc3Sc3ccc(C(F)(F)F)cc32)CC1` ?
Response: active

Query: Recorded call for `C=CCCC(=O)O` ?
Response: inactive

Query: Which result was noted for this molecule in the test: `CO`
Response: inactive

Values compiled from PubChem BioAssay (Tox21).
